Values from patent US20090176841A1

Molecular target: recombinant human TRα (Homo sapiens, UniProt P10827)
Sequence (P10827 190-410 isoform P10827-2): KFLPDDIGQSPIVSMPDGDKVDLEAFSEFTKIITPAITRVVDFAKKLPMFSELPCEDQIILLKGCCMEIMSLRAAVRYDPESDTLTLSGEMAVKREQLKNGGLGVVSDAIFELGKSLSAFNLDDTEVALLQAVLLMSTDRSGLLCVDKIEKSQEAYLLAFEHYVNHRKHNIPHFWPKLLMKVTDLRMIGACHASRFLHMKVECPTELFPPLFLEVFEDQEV
Assay: biochemical
Conditions: TR[…] (IC50, nM), displacement of 125I-T3 (0.16 nM)
Excerpt: Thyroid Hormone Receptor Binding Test (1) Preparation of Fused Protein Having Ligand Binding Region of Thyroid Hormone Receptor Human TRα and human TRβ ligand binding domains were expressed in Escherichia coli as a fused protein (recombinant human TRα or recombinant human TRβ) having TRα and TRβ ligand binding domains at a C-terminus of His-Patch Thioredoxin using the His-Patch Thioredoxin fusing protein expressing system (Invitrogen). […]
measured metric: log10(IC50) (log10 of the value in nM)

INSERT INTO results (molecule, target_or_test_system, measured_metric, reading) VALUES
  ('Cc1cc2c(NC(=O)C(=O)O)cccc2n1Cc1ccc(O)c(C(C)C)c1', 'recombinant human TRα (Homo sapiens, UniProt P10827)', 'log10(IC50)', 2.36),
  ('Cc1ccc(NC(=O)C(C)C(=O)O)c2cc(C)n(Cc3ccc(O)c(C(C)C)c3)c12 (stereo not drawn)', 'recombinant human TRα (Homo sapiens, UniProt P10827)', 'log10(IC50)', 2.94),
  ('Cc1ccc(NC(=O)C(F)C(=O)O)c2cc(C)n(Cc3ccc(O)c(C(C)C)c3)c12 (stereo not drawn)', 'recombinant human TRα (Homo sapiens, UniProt P10827)', 'log10(IC50)', 2.08),
  ('CC(C)c1cc(Cn2ccc3c(NC(=O)CC(=O)O)ccc(Cl)c32)ccc1O', 'recombinant human TRα (Homo sapiens, UniProt P10827)', 'log10(IC50)', 2.36),
  ('Cc1ccc(NC(=O)Cc2nnn[nH]2)c2ccn(Cc3ccc(O)c(C(C)C)c3)c12', 'recombinant human TRα (Homo sapiens, UniProt P10827)', 'log10(IC50)', 3.91),
  ('CCOc1cc(Cn2c(C)cc3c(NC(=O)C(=O)O)ccc(C)c32)ccc1O', 'recombinant human TRα (Homo sapiens, UniProt P10827)', 'log10(IC50)', 3.28);
